Recorded log10 IC50 values for a group of compounds are listed next.
target: human NPY Y5 receptor (Homo sapiens); construct: expressed in transfected cells; assay: Affinity for NPY Y5 receptor ([125I] peptide YY binding, CHO cell membranes); conditions: inhibition of specific [125I] peptide YY binding, membranes of CHO cells expressing NPY Y5 receptor
Units before log transform: nM; reported quantity: IC50; transform: log10.

Reference set (8 entries):
compound: CC(C)(C)S(=O)(=O)NC1CCC(C(=O)Nc2ccc(OC3CCCCC3)cc2)CC1 (centres unmarked) [Ia-175]
log10 IC50: -0.31
--
compound: CCCCc1ccc(NC(=O)C2CCC(NS(=O)(=O)C(C)(C)C)CC2)cc1 (centres unmarked) [Compound I-18]
log10 IC50: 0.64
--
compound: CC(C)(C)S(=O)(=O)NC1CCC(C(=O)Nc2ccc(OC3CCOCC3)cc2)CC1 (centres unmarked) [Ia-200]
log10 IC50: 0.15
--
compound: C[C@@H]1CN(c2ccc(NC(=O)C3CCC(NS(=O)(=O)C(C)(C)C)CC3)cn2)C[C@H](C)O1 (some centres unmarked) [Ia-40]
log10 IC50: 0.34
--
compound: CCCCOc1cccc(NC(=O)C2CCC(NS(=O)(=O)C(C)(C)C)CC2)c1 (centres unmarked) [Compound I-161]
log10 IC50: -0.31
--
compound: CC(C)(C)S(=O)(=O)NC1CCC(C(=O)Nc2ccc3oc(=O)ccc3c2)CC1 (centres unmarked) [Ia-62]
log10 IC50: 0.04
--
compound: CC(C)(C)S(=O)(=O)NC1CCC(C(=O)Nc2nnc(-c3ccccc3)s2)CC1 (centres unmarked) [Ia-66]
log10 IC50: -0.23
--
compound: C[C@@H]1CN(c2ccc(NC(=O)c3ccc(NS(=O)(=O)C(C)(C)C)cc3)cc2)C[C@H](C)O1 [Ia-124]
log10 IC50: 0.04

Problem: Please report the recorded log10 IC50 for CCCCOc1ccc(NC(=O)C2CCC(NS(=O)(=O)C(C)(C)C)CC2)cc1 (centres unmarked) [Compound I-164] .
Result: -0.15

---

Molecular target: human NPY Y5 receptor (Homo sapiens, UniProt Q15761)
Construct: expressed in transfected cells
Sequence (Q15761 whole entry): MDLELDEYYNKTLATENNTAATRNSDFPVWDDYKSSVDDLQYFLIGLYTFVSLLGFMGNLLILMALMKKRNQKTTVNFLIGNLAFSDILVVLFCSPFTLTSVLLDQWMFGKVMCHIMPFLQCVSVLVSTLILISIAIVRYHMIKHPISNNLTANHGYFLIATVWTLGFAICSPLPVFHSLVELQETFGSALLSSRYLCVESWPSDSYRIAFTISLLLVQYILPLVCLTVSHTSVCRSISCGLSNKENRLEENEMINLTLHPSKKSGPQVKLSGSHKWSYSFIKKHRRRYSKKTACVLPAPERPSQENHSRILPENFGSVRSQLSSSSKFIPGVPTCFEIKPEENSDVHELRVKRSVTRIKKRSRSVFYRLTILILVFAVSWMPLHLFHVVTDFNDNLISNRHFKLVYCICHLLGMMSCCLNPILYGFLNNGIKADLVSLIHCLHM
Experiment: Affinity for NPY Y5 receptor ([125I] peptide YY binding, CHO cell membranes)
Details: inhibition of specific [125I] peptide YY binding, membranes of CHO cells expressing NPY Y5 receptor
Text: Experiment 1 Affinity for NPY Y5 Receptor cDNA sequence encoding a human NPY Y5 receptor (WO096/16542) was cloned in the expression vector pME18S (Takebe et al. Mol. Cell. Biol. 8, 8957). The obtained expression vector was transfected into a host CHO cells by using a Lipofect AMINE reagent (Trademark, Gibco BRL Co., Ltd.) according to an instruction protocol to obtain the cells that stably express NPY Y5 receptor. […]
reportedProperty: log10(IC50) (log10 of the value in nM)
Units before log transform: nM; reported quantity: IC50; transform: log10.

compound: CC(C)(C)S(=O)(=O)NC1CCC(C(=O)Nc2ccc(-n3cccn3)cc2)CC1 (centres unmarked)
log10(IC50): 0.26

Problem: Please report the recorded log10(IC50) for CC(C)NC(=O)c1ccc(NC(=O)C2CCC(NS(=O)(=O)C(C)C)CC2)cc1 (centres unmarked) .
Result: 0.15

Problem: Please report the recorded log10(IC50) for CCN(CC)c1ccc(NC(=O)C2CCC(NS(=O)(=O)C(C)(C)C)CC2)cc1 (centres unmarked) .
Result: 0.00

Problem: Please report the recorded log10(IC50) for CC(C)S(=O)(=O)NC1CCC(C(=O)Nc2ccc(OC3CCCC3)cc2)CC1 (centres unmarked) .
Result: -0.64
